Would you mind telling me the reported binding signal of each entry?
Biological target: GST-Nv-NF-kB (Cys allele) (Nematostella vectensis, UniProt E5G601 2-411)
Sequence: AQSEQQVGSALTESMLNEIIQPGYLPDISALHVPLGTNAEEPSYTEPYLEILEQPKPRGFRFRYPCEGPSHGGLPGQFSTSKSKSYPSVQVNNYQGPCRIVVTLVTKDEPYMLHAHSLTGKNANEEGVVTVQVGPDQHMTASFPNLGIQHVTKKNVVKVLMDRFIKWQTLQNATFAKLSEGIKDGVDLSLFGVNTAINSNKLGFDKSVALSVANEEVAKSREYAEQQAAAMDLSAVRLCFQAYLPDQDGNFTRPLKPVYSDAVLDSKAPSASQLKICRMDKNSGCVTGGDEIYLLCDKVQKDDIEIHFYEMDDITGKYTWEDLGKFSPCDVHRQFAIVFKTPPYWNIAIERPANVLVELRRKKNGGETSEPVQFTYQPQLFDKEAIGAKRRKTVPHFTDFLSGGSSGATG
Assay: protein-binding microarray (PBM); PBM: ~300 nM protein, 6 mM HEPES pH 7.8, 80 mM KCl, 0.5 mM EDTA, 0.5 mM EGTA, 6% glycerol, 35 ng/ul poly-dIdC, 1% milk, 1 h, room temperature; high values mean tight binding
Details: dsDNA, one strand shown
One number for each entry, in z-score.

Solved cases (8 shown):
INPUT: Find binding signal (GST-Nv-NF-kB (Cys allele) (Nematostella vectensis, UniProt E5G601 2-411)) for the entry `CCGATTAACATCAGGACATCCCCTGATGTTAATCGGGTCTTGATTCGCTTGACGCTGCTG`
OUTPUT: 7.54

INPUT: Any idea what binding signal came out for `CCGATTAACATCACGGGAACCCCTGATGTTAATCGGGTCTTGATTCGCTTGACGCTGCTG` on GST-Nv-NF-kB (Cys allele) (Nematostella vectensis, UniProt E5G601 2-411)?
OUTPUT: 2.85

INPUT: Lab request: please report binding signal under test system GST-Nv-NF-kB (Cys allele) (Nematostella vectensis, UniProt E5G601 2-411) for `CCGATTAACATCAAAAATCCCAATGATGTTAATCGGGTCTTGATTCGCTTGACGCTGCTG`
OUTPUT: 3.4

INPUT: Give GST-Nv-NF-kB (Cys allele) (Nematostella vectensis, UniProt E5G601 2-411) binding signal for `CCGATTAACATCACAACTTTCCCTGATGTTAATCGGGTCTTGATTCGCTTGACGCTGCTG`
OUTPUT: 5.95

INPUT: Missing value: binding signal, GST-Nv-NF-kB (Cys allele) (Nematostella vectensis, UniProt E5G601 2-411), entry `CCGATTAACATCAGGGGGGGCAATGATGTTAATCGGGTCTTGATTCGCTTGACGCTGCTG` . Fill in?
OUTPUT: 3.92

INPUT: Hi! What's the reported binding signal for `CCGATTAACATCAGGGATTTACCTGATGTTAATCGGGTCTTGATTCGCTTGACGCTGCTG` on GST-Nv-NF-kB (Cys allele) (Nematostella vectensis, UniProt E5G601 2-411)?
OUTPUT: 5.65

INPUT: Form entry - test system: GST-Nv-NF-kB (Cys allele) (Nematostella vectensis, UniProt E5G601 2-411); read-out: binding signal; sequence: `CCGATTAACATCACAAACCCCCCTGATGTTAATCGGGTCTTGATTCGCTTGACGCTGCTG`
OUTPUT: 4.96

INPUT: Lab request: please report binding signal under test system GST-Nv-NF-kB (Cys allele) (Nematostella vectensis, UniProt E5G601 2-411) for `CCGATTAACATCAGGGGGTTCACTGATGTTAATCGGGTCTTGATTCGCTTGACGCTGCTG`
OUTPUT: 4.09

Would you mind listing binding signal for each of the following sequences?
1. CCGATTAACATCAAGTTTCCCCATGATGTTAATCGGGTCTTGATTCGCTTGACGCTGCTG
2. CCGATTAACATCACGAATTCCCCTGATGTTAATCGGGTCTTGATTCGCTTGACGCTGCTG
3. CCGATTAACATCAGGGAATATTATGATGTTAATCGGGTCTTGATTCGCTTGACGCTGCTG
4. CCGATTAACATCAGGGCAACCCCTGATGTTAATCGGGTCTTGATTCGCTTGACGCTGCTG
5. CCGATTAACATCAGGGGAAGGAATGATGTTAATCGGGTCTTGATTCGCTTGACGCTGCTG
6. CCGATTAACATCAGAATTCCCGATGATGTTAATCGGGTCTTGATTCGCTTGACGCTGCTG

OUTPUT:
1. 6.87
2. 10.1
3. 5.86
4. 2.55
5. 5.34
6. 4.69

---

Exercise: state measured binding signal for each of the sequences provided.
Biological target: GST-Dm-Relish (Drosophila melanogaster, UniProt Q94527 99-473)
Sequence: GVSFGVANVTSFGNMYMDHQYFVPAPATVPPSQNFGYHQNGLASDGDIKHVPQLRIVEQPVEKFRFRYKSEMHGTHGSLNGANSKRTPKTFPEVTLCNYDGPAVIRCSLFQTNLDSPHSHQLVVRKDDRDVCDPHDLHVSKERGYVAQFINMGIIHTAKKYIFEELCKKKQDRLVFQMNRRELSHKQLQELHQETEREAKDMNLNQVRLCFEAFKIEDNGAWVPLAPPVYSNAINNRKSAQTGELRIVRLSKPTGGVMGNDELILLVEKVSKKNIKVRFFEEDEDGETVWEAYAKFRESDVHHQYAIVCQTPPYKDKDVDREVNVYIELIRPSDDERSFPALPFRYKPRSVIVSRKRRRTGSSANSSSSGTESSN
Test: protein-binding microarray (PBM); PBM: ~300 nM protein, 6 mM HEPES pH 7.8, 80 mM KCl, 0.5 mM EDTA, 0.5 mM EGTA, 6% glycerol, 35 ng/ul poly-dIdC, 1% milk, 1 h, room temperature; Ap Aiptasia and Nv Nematostella (sea anemones) / Co Capsaspora / Aq Amphimedon (sponge) / Dm Drosophila / Hu human; RHD is the Rel homology domain; high values mean tight binding
Conditions: dsDNA, one strand shown
Give the number first and the unit second.

The cases that follow already have their binding signal on record.
INPUT: Provide the documented binding signal with GST-Dm-Relish (Drosophila melanogaster, UniProt Q94527 99-473) as the system for `CCGATTAACATCACGGTTATTCCTGATGTTAATCGGGTCTTGATTCGCTTGACGCTGCTG`
OUTPUT: 3.64 z-score

INPUT: Recorded binding signal for `CCGATTAACATCAACTATCCCCCTGATGTTAATCGGGTCTTGATTCGCTTGACGCTGCTG` with GST-Dm-Relish (Drosophila melanogaster, UniProt Q94527 99-473), please?
OUTPUT: 2.98 z-score

INPUT: Provide value of binding signal for this record tested with GST-Dm-Relish (Drosophila melanogaster, UniProt Q94527 99-473): `CCGATTAACATCAGGGGAGATTATGATGTTAATCGGGTCTTGATTCGCTTGACGCTGCTG`
OUTPUT: 2.68 z-score

INPUT: Tell me reported binding signal for `CCGATTAACATCAGGGGAAAGGATGATGTTAATCGGGTCTTGATTCGCTTGACGCTGCTG` , tested with GST-Dm-Relish (Drosophila melanogaster, UniProt Q94527 99-473).
OUTPUT: 1.2 z-score

INPUT: Field: binding signal (GST-Dm-Relish (Drosophila melanogaster, UniProt Q94527 99-473)). Entry: `CCGATTAACATCAAGGGCATCCCTGATGTTAATCGGGTCTTGATTCGCTTGACGCTGCTG`
OUTPUT: 5.6 z-score

INPUT: What is its binding signal for GST-Dm-Relish (Drosophila melanogaster, UniProt Q94527 99-473)? Entry: `CCGATTAACATCAAAACTTTCCCTGATGTTAATCGGGTCTTGATTCGCTTGACGCTGCTG`
OUTPUT: 4.08 z-score

INPUT: Quick check: binding signal on GST-Dm-Relish (Drosophila melanogaster, UniProt Q94527 99-473), item `CCGATTAACATCAATTTCCCCCATGATGTTAATCGGGTCTTGATTCGCTTGACGCTGCTG` ?
OUTPUT: 4.97 z-score

INPUT: Look up binding signal with GST-Dm-Relish (Drosophila melanogaster, UniProt Q94527 99-473) for this sequence: `CCGATTAACATCAAGGAATCCCCTGATGTTAATCGGGTCTTGATTCGCTTGACGCTGCTG`
OUTPUT: 10.1 z-score

Quick one: give me binding signal for each item below, same order please.
1. CCGATTAACATCAGGGCAACCCCTGATGTTAATCGGGTCTTGATTCGCTTGACGCTGCTG
2. CCGATTAACATCAGGGGAGTTTATGATGTTAATCGGGTCTTGATTCGCTTGACGCTGCTG
3. CCGATTAACATCAAAACTCCCCCTGATGTTAATCGGGTCTTGATTCGCTTGACGCTGCTG
4. CCGATTAACATCAGATATTTCCCTGATGTTAATCGGGTCTTGATTCGCTTGACGCTGCTG
5. CCGATTAACATCAGGGGAATGTATGATGTTAATCGGGTCTTGATTCGCTTGACGCTGCTG
6. CCGATTAACATCAGGATTTCCCATGATGTTAATCGGGTCTTGATTCGCTTGACGCTGCTG
7. CCGATTAACATCAGGGTTTTCCATGATGTTAATCGGGTCTTGATTCGCTTGACGCTGCTG
8. CCGATTAACATCAAAGTTTCCCCTGATGTTAATCGGGTCTTGATTCGCTTGACGCTGCTG

OUTPUT:
1. 4.15 z-score
2. 6.12 z-score
3. 8.02 z-score
4. 2.31 z-score
5. 2.96 z-score
6. 5.84 z-score
7. 5.27 z-score
8. 5.37 z-score

Batch request: binding signal per item, same order as input.
1. CCGATTAACATCAGGGGATTAACTGATGTTAATCGGGTCTTGATTCGCTTGACGCTGCTG
2. CCGATTAACATCAGGGGAAGGTATGATGTTAATCGGGTCTTGATTCGCTTGACGCTGCTG

OUTPUT:
1: 8.54 z-score; 2: 2.58 z-score

These data points were gathered from paper PMC5700166.
